Assignment: determine reported phosphorylation enrichment for the given sequences.
# SYSTEM_UNDER_TEST: Hck (UniProt P08631)
# Sequence (P08631 whole entry, looked up): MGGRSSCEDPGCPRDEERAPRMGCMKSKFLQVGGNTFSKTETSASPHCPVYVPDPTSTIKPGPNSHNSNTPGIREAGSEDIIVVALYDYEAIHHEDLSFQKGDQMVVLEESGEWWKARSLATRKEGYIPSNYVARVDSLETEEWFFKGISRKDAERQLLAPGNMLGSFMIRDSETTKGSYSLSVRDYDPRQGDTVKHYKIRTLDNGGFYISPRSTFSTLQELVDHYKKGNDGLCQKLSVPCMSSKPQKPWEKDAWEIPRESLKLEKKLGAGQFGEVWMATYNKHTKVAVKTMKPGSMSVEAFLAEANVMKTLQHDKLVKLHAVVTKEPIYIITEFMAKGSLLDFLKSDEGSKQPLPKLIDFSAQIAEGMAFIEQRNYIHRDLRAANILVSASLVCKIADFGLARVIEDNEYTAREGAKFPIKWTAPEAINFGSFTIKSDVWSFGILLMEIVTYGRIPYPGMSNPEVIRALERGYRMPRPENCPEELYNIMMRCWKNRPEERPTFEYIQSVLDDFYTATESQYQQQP
# TEST_DETAILS: phosphorylation enrichment, bacterial display (enrichment ratio); higher = better substrate or ligand; peptides without Tyr show the background;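 also: 11-residue human phosphosite peptides and single-mutation variants displayed on the E. coli surface, counted by deep sequencing, each peptide's frequency after selection divided by its frequency in the unselected input library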;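 also: frequency after pTyr selection over input frequency; kinase dosed for 20-30% of maximal phosphorylation in three min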
Answers are plain numbers.

SVVVPYGPPEV [TP53_Y220_E221G]
0.41

Kindly give each listed record's phosphorylation enrichment.
1. SFHSSYSEIKD [DCLRE1C_Y322]
2. MSNFACVKREV [SCN1A_Y1694_Y1694C]
3. SFKNKYGMVAQ [APOB_Y276_YF]
4. EHTTLYSDNST [KANSL1_Y223_N225D]
5. AFEQQYSPIPK [NOX1_Y373_R378K]

Reply:
[0.51, 0.51, 0.354, 0.561, 3.14]

Kindly give each listed record's phosphorylation enrichment.
1. KKYPDYIQIAM [SGMS2_Y59]
2. APGNAYGDAGF [SYP_Y250_D248N_YF]

Reply:
0.581
0.433

Kindly give each listed record's phosphorylation enrichment.
1. DHCNQYEQQKM [CHD7_Y75_Y72C]
2. KVPELYEIHKE [BCR_Y554]

Reply:
0.499
0.853

====

# SYSTEM_UNDER_TEST: EPHB1 (UniProt P54762)
# Sequence (P54762 whole entry, looked up): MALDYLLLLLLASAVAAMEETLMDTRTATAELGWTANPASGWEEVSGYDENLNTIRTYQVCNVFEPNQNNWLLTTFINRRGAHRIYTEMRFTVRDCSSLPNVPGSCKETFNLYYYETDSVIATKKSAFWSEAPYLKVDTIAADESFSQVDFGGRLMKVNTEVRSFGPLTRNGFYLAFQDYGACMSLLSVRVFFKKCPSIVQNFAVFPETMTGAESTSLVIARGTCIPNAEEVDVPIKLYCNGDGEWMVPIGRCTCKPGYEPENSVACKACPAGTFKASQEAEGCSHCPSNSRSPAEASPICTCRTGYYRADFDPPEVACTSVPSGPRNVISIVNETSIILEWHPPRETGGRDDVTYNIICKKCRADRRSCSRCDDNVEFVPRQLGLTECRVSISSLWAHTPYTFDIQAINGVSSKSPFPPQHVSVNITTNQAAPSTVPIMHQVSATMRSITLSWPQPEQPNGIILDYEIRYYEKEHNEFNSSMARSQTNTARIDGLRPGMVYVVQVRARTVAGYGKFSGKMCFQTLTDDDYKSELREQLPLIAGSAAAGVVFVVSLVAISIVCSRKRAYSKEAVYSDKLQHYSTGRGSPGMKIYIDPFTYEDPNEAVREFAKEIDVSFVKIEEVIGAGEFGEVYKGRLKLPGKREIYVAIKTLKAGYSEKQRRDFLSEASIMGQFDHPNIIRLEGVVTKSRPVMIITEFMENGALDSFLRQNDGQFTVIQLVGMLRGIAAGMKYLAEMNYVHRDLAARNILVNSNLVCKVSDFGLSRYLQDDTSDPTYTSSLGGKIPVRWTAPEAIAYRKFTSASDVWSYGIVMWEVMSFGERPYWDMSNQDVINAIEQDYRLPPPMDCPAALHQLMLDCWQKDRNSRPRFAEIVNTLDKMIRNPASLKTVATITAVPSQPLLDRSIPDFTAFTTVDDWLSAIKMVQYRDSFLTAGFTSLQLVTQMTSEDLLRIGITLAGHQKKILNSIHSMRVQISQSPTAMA
# TEST_DETAILS: phosphorylation enrichment, bacterial display (enrichment ratio); higher = better substrate or ligand; peptides without Tyr show the background
Assignment: determine reported phosphorylation enrichment for the given sequences.
One number for each entry.

HGEAVYSRDCV [XPC_Y676_R671H]
0.473
SYMVRYNQPRV [GRIN2D_Y736]
0.46

Kindly give each listed record's phosphorylation enrichment.
1. RIVEIYSRSLQ [GCH1_Y175_R178S]
2. KGPNVCKKTVN [REV3L_Y1156_Y1156C]

Reply:
1: 1.03; 2: 0.457

====

# SYSTEM_UNDER_TEST: Fyn (UniProt P06241)
# Sequence (P06241 whole entry, looked up): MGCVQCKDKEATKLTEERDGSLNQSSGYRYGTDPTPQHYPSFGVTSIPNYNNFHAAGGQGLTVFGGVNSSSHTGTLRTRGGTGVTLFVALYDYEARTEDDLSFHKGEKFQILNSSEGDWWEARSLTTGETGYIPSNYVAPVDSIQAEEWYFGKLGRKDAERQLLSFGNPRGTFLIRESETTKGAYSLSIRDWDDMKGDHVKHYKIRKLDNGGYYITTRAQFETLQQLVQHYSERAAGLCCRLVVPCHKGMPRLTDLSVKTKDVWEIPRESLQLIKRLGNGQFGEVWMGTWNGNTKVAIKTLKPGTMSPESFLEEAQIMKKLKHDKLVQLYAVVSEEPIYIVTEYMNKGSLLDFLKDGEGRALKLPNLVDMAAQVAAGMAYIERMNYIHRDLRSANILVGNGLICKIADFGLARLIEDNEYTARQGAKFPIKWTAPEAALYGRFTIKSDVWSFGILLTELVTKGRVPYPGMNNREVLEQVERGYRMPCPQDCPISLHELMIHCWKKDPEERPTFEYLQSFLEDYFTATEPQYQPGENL
# TEST_DETAILS: phosphorylation enrichment, bacterial display (enrichment ratio); higher = better substrate or ligand; peptides without Tyr show the background
ASSAY_READOUT: phosphorylation enrichment

LEIETYPRLLD [KRT12_Y429_R430P]
0.599
VKMLEYLGKDV [CASP5_Y74]
0.454
PELINYHQHNS [BTK_Y361]
0.648

Kindly give each listed record's phosphorylation enrichment.
1. KLLPEYPGVLS [DHFR2_Y163]
2. NRLTDYYEPLL [BBS10_Y536]
3. SGSWSYNTSTE [SELE_Y24_A21S]

Reply:
1: 0.46; 2: 1.03; 3: 0.5

====

Assignment: determine reported phosphorylation enrichment for the given sequences.
# SYSTEM_UNDER_TEST: MERTK (UniProt Q12866)
# Sequence (Q12866 whole entry, looked up): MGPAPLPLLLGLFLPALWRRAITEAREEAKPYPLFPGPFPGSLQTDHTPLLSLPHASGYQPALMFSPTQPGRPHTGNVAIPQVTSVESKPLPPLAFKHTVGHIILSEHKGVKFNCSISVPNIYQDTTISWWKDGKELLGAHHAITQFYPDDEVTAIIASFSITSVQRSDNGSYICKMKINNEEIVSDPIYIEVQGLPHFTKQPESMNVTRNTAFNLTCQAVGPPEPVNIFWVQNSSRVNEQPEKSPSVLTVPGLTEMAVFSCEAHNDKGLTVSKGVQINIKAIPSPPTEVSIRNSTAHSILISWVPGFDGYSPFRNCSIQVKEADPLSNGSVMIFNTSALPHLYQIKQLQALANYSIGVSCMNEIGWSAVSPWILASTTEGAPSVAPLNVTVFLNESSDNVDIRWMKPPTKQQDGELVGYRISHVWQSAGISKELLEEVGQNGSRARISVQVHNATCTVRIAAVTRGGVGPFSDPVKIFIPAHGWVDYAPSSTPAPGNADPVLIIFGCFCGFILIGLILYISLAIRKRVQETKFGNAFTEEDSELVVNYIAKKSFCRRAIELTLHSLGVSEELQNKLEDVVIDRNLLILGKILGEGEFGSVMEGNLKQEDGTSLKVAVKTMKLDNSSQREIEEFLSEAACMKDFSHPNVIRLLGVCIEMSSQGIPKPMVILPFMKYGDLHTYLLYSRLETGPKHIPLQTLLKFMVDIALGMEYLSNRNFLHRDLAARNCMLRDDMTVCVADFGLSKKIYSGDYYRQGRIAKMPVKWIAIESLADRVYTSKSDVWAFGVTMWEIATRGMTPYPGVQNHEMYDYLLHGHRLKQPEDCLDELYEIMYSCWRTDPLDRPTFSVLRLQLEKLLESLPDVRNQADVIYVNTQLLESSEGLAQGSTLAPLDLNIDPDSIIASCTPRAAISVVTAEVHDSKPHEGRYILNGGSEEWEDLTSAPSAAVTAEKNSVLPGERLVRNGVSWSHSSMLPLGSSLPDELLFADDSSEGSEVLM
# TEST_DETAILS: phosphorylation enrichment, bacterial display (enrichment ratio); higher = better substrate or ligand; peptides without Tyr show the background

LHSDHYSPSGR [TMPRSS12_Y23_Y19H]
0.617
NHYKIYNLYAE [PTEN_Y68_C71Y]
0.461
SHSMRYFSTAV [HLA-C_Y31_D33S]
0.425

Then there is this sequence:
Query: State the recorded phosphorylation enrichment for this entry: EVESPYEVHDF [GIGYF2_Y1168_YF]
Reply: 0.974

====

# Test system: Fer (mouse)
# TEST_DETAILS: phosphorylation enrichment, bacterial display (enrichment ratio); higher = better substrate or ligand; peptides without Tyr show the background
Entry flag: Yes if phosphorylation enrichment reaches 0.6; No if it does not.

YKPGFYNLKEK [LAMA1_Y490_C485Y]
No
NGSFRYVIISQ [LRP1B_Y1988]
No
DEDEEYEYMNR [ERBB3_Y1197]
No
HKNNNYEPNLF [BRCA2_Y57]
Yes

Query: Form field: phosphorylation enrichment at least 0.6? Entry: KSSDVYVSYDC [SORL1_Y136_Y141C]
Reply: Yes
